- System: HepG2 human hepatocellular carcinoma cells
- Method: HepG2 cytotoxicity / cell health parameters
- Format: cell-based
- Assay context: HepG2; read-out: Cytochrome C release AC50

Molecule	Tested system	AC50 (µM)
C1=NCCCN=Cc2ccc[n]2[Au+][n]2cccc21.[Cl-] [MA_AuPr]	HepG2 human hepatocellular carcinoma cells	33

* * *

- System: HeLa cells
- Method: HeLa cell cytotoxicity dose-response
- Type: cell-based
- Assay context: read-out: LC50 (the source's name)
Result type: CC50

Molecule	Result type	Reported
C1=[N+]2CCCC[N+]3=Cc4ccc5[n]4[Au-]23[n]2c1ccc2-c1nc2ccccc2nc1-5.F[P-](F)(F)(F)(F)F [KA_AumacroBu]	CC50	< 10 µM
